Please go through the items and note down their viability, T/C.
- Test system: NCI-H23 complex spheroids with HUVEC/MSC, viability
- experiment: Anticancer human tumor NCI-H23 cell line growth inhibition [RAS];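 note: spheroids exposed to compound for 7 days; 100% = DMSO vehicle control viability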
- experimental parameters: second compound 0.3 µM; first compound 1 µM; active compounds read low
Give bare numbers, in %.

Please review the following examples before continuing.
1. CC(C)NCC(C(=O)N1CCN(c2ncnc3c2C(C)CC3O)CC1)c1ccc(Cl)cc1 (centres undefined) + CCn1c(-c2cccnc2C(C)OC)c2c3cc(ccc31)N1CCOC(CC(NC(=O)C(C(C)C)N(C)C(=O)C3(F)CCN(C(=O)C#CC(C)(C)N(C)C)CC3)C(=O)N3CCCC(N3)C(=O)OCC(C)(C)C2)C1: 16.6
2. O=C(c1ccc(F)c(F)c1Nc1ccc(I)cc1F)N1CC(O)([C@@H]2CCCCN2)C1 + CCn1c(-c2cccnc2C(C)OC)c2c3cc(ccc31)N1CCOC(CC(NC(=O)C(C(C)C)N(C)C(=O)C3(F)CCN(C(=O)C#CC(C)(C)N(C)C)CC3)C(=O)N3CCCC(N3)C(=O)OCC(C)(C)C2)C1: 9.07
3. Nc1ccn(C2OC(CO)C(O)C2(F)F)c(=O)n1 (centres undefined) + CCn1c(-c2cc(N3CCN(C)CC3)cnc2C(C)OC)c2c3cc(ccc31)-c1csc(n1)CC(NC(=O)C1CC1C)C(=O)N1CCCC(N1)C(=O)OCC(C)(C)C2: 3.48

Proceed to the following item.
If you can, please state the reported viability, T/C value of CCN1CCN(Cc2ccc(Nc3ncc(F)c(-c4cc(F)c5nc(C)n(C(C)C)c5c4)n3)nc2)CC1 + CCn1c(-c2cc(N3CCN(C)CC3)cnc2C(C)OC)c2c3cc(ccc31)-c1csc(n1)CC(NC(=O)C1CC1C)C(=O)N1CCCC(N1)C(=O)OCC(C)(C)C2 . 12.6
